- Test system: Escherichia coli TOP10
- assay text: shrunken log2 fold change of peptide-encoding DNA abundance (4.5 h post-induction vs induction); higher = less antimicrobial activity (less host growth inhibition)
- condition parameters: time post-induction: 4.5 h; library: site-saturation at positions 5, 18, 19, 20
Documented shrunken log2 fold change across a set of sequences
reported metric: shrunken log2 fold change

ordered residues	reported metric	quantitative readout
RRIRRRPPRLPRPRPRPMFYPRP	shrunken log2 fold change	-0.229
RRIRARPPRLPRPRPRPAMAPRP	shrunken log2 fold change	0.479
RRIRARPPRLPRPRPRPAKFPRP	shrunken log2 fold change	0.168
RRIRTRPPRLPRPRPRPGHTPRP	shrunken log2 fold change	-0.342
RRIRYRPPRLPRPRPRPHMEPRP	shrunken log2 fold change	-0.249
RRIRDRPPRLPRPRPRPQVMPRP	shrunken log2 fold change	0.0256
RRIRYRPPRLPRPRPRPGANPRP	shrunken log2 fold change	-0.0888
RRIRWRPPRLPRPRPRPSGDPRP	shrunken log2 fold change	0.537
RRIRCRPPRLPRPRPRPHSPPRP	shrunken log2 fold change	-0.422
RRIRNRPPRLPRPRPRPVTEPRP	shrunken log2 fold change	-0.0551
RRIRWRPPRLPRPRPRPQVTPRP	shrunken log2 fold change	-0.0309
RRIRNRPPRLPRPRPRPIDQPRP	shrunken log2 fold change	-0.058
RRIRSRPPRLPRPRPRPESNPRP	shrunken log2 fold change	-0.126
RRIRHRPPRLPRPRPRPGEIPRP	shrunken log2 fold change	0.761
RRIRCRPPRLPRPRPRPHHKPRP	shrunken log2 fold change	-0.857
RRIRFRPPRLPRPRPRPNFNPRP	shrunken log2 fold change	-0.554
RRIRHRPPRLPRPRPRPWSGPRP	shrunken log2 fold change	-0.17
RRIRVRPPRLPRPRPRPQIDPRP	shrunken log2 fold change	-0.321
RRIRHRPPRLPRPRPRPGMTPRP	shrunken log2 fold change	-0.039
RRIRLRPPRLPRPRPRPFVVPRP	shrunken log2 fold change	-0.236
RRIRARPPRLPRPRPRPQLSPRP	shrunken log2 fold change	0.329
RRIRRRPPRLPRPRPRPMYQPRP	shrunken log2 fold change	-0.058
RRIRGRPPRLPRPRPRPCQEPRP	shrunken log2 fold change	0.0738
RRIRPRPPRLPRPRPRPIPNPRP	shrunken log2 fold change	-0.353
RRIRARPPRLPRPRPRPKRRPRP	shrunken log2 fold change	0.282
RRIRCRPPRLPRPRPRPQEYPRP	shrunken log2 fold change	-0.399
RRIRKRPPRLPRPRPRPIIGPRP	shrunken log2 fold change	0.00654
RRIRCRPPRLPRPRPRPAEFPRP	shrunken log2 fold change	-0.0616
RRIRWRPPRLPRPRPRPEHLPRP	shrunken log2 fold change	-0.138
RRIRPRPPRLPRPRPRPSMTPRP	shrunken log2 fold change	0.496
RRIRTRPPRLPRPRPRPMLLPRP	shrunken log2 fold change	-0.0757
RRIRMRPPRLPRPRPRPFAEPRP	shrunken log2 fold change	0.625

###

- Tested on: Escherichia coli TOP10;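 also: peptides expressed intracellularly from a pBAD plasmid library in pooled LB shake-flask culture, induced with 0.3% L-arabinose, DNA abundance read by NGS, three biological replicates, DESeq2 with apeglm shrinkage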
- assay text: shrunken log2 fold change of peptide-encoding DNA abundance (4.5 h post-induction vs induction); higher = less antimicrobial activity (less host growth inhibition)
- condition parameters: time post-induction: 4.5 h; library: site-saturation at positions 5, 18, 19, 20
Given measured shrunken log2 fold change, output y if it is greater than or equal to -0.1 and n if not.

ordered residues	class label
RRIRGRPPRLPRPRPRPAAQPRP	y
RRIRSRPPRLPRPRPRPSLYPRP	n
RRIRRRPPRLPRPRPRPLKEPRP	y
RRIRWRPPRLPRPRPRPDVLPRP	y
RRIRHRPPRLPRPRPRPSFYPRP	n
RRIRWRPPRLPRPRPRPQVPPRP	n
RRIRVRPPRLPRPRPRPCLDPRP	n
RRIRKRPPRLPRPRPRPSIHPRP	n
RRIRMRPPRLPRPRPRPEKHPRP	y
RRIRVRPPRLPRPRPRPGPCPRP	n
RRIRTRPPRLPRPRPRPFNYPRP	n
RRIRMRPPRLPRPRPRPSMQPRP	y
RRIRVRPPRLPRPRPRPCMKPRP	n
RRIRRRPPRLPRPRPRPMAIPRP	y
RRIRCRPPRLPRPRPRPMSCPRP	y
